system: Enterococcus faecalis; test: Antibacterial activity against Enterococcus faecalis 14-2 after 18 to 24 hrs; assay type: functional
measured attribute: MIC

- compound: "NCC1CN(c2nc3c(cc2F)c(=O)c(C(=O)O)cn3[C@@H]2C[C@@H]2F)C/C1=N\\OCc1ccc([N+](=O)[O-])cc1 (stereo partly drawn)"
  target or system: "Enterococcus faecalis"
  result: "0.25 µg/mL"
- compound: "CO/N=C1\\CN(c2nc3c(cc2F)c(=O)c(C(=O)O)cn3[C@@H]2C[C@@H]2F)CC1(C)CN (stereo partly drawn)"
  target or system: "Enterococcus faecalis"
  result: "0.125 µg/mL"
- compound: "CC1(N)CN(c2nc3c(cc2F)c(=O)c(C(=O)O)cn3[C@@H]2C[C@@H]2F)C/C1=N\\OCc1ccccc1 (stereo partly drawn)"
  target or system: "Enterococcus faecalis"
  result: "2 µg/mL"
- compound: "O=C(O)c1cn(C2CC2)c2cc(N3CCNCC3)c(F)cc2c1=O"
  target or system: "Enterococcus faecalis"
  result: "1 µg/mL"
- compound: "CCO/N=C1\\CN(c2nc3c(cc2F)c(=O)c(C(=O)O)cn3[C@@H]2C[C@@H]2F)CC1(C)CN (stereo partly drawn)"
  target or system: "Enterococcus faecalis"
  result: "0.03 µg/mL"

Please respond with reported MIC (system Enterococcus faecalis) for NCC1CN(c2nc3c(cc2F)c(=O)c(C(=O)O)cn3[C@@H]2C[C@@H]2F)C/C1=N\OCc1ccc(F)cc1 (stereo partly drawn) .
< 0.008 µg/mL

Please respond with reported MIC (system Enterococcus faecalis) for COc1cccc(CO/N=C2\CN(c3nc4c(cc3F)c(=O)c(C(=O)O)cn4[C@@H]3C[C@@H]3F)CC2CN)c1OC (stereo partly drawn) .
0.015 µg/mL

Please respond with reported MIC (system Enterococcus faecalis) for CO/N=C1\CN(c2nc3c(cc2F)c(=O)c(C(=O)O)cn3[C@@H]2C[C@@H]2F)CC1(C)N (stereo partly drawn) .
2 µg/mL
